Values of IC50 reported for Solute carrier family 22 member 11 (Homo sapiens, UniProt Q9NSA0) appear below.
Answers are plain numbers, in µM.

structure	IC50 [µM]
O=S(=O)(Nc1cncc(C(F)(F)F)c1)c1ccccc1C(F)(F)F	8.5

Give the reported IC50 for O=S(=O)(Nc1ccc(C(F)(F)F)nc1)c1ccccc1C(F)(F)F (system: Solute carrier family 22 member 11 (Homo sapiens, UniProt Q9NSA0)).
Sequence (Q9NSA0 whole entry): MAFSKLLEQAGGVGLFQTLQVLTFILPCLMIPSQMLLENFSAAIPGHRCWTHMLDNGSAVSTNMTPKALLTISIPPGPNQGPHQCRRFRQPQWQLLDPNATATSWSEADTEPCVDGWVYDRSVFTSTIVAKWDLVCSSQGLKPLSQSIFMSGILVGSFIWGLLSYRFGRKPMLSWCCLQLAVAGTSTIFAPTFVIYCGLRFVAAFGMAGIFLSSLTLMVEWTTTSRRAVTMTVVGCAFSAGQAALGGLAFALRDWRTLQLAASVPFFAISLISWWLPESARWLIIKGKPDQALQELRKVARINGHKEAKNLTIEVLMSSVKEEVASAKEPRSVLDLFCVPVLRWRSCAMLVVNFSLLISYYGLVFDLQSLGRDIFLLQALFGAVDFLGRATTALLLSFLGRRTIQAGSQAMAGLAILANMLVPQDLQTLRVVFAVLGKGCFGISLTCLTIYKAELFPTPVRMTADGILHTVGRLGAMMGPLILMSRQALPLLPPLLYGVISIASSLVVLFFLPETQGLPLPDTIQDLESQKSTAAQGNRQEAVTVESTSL
9.4

---

assay: Half life in dog at 0.363 mg/kg, iv and 0.737 mg/kg, po; type: ADME, organism-based, Canis lupus familiaris; details: in vivo
test readout: half-life (h)
Numbers only, in h.

half-life lookup needed for O=S(=O)(Nc1ccc(C(F)(F)F)nc1)c1ccccc1C(F)(F)F , thanks.
103
